Molecular target: CBL-B (residues 36-427) (Homo sapiens, UniProt Q13191)
Construct: Purified CBL-B (residues 36-427) and C-CBL (residues 46-435) proteins from baculovirus-infected insect cells; made in house; host or cells: baculovirus-infected insect cells
Experiment: Ligand Displacement Assay (LDA), HTRF competitive binding against BODIPY-labeled fluorescent tracer, CBL-B
Conditions: geometric mean of the number of tests, read-out: CBL-B Ki (nM) GMean
Excerpt: Ligand Displacement Assay (LDA) […]
Hi there, I'd appreciate the recorded Ki for every entry that follows.
Kindly answer with a numeric value in nM, unit omitted.

Consider the compound CN1CCC[C@@H]1COc1nc(C(F)(F)F)cc2c(-c3cccc(C4(Cc5nncn5C)COC4)c3)n[nH]c12 [Example J6] and give its recorded Ki. 48.9

Consider the compound C[C@H](N)c1nc(C(F)(F)F)cc2c(-c3cccc([C@H](c4nncn4C)C4CCC4)c3)n[nH]c12 [Example K12] and give its recorded Ki. 19.3

Consider the compound C[C@@H](N[C@H]1C[C@H](O)C1)c1nc(C(F)(F)F)cc2c(-c3cccc([C@H](c4nncn4C)C4CCC4)c3)n[nH]c12 (single isomer, unassigned) [Example C92] and give its recorded Ki. 4.4

Consider the compound C[C@@H](c1nc(C(F)(F)F)cc2c(-c3cccc([C@H](c4nncn4C)C4CCC4)c3)n[nH]c12)N1CC[C@H]1CO (single isomer, unassigned) [Example D64] and give its recorded Ki. 8.7

Consider the compound C[C@H](c1nc(C(F)(F)F)cc2c(-c3cccc(C4(Cc5nncn5C)COC4)c3)n[nH]c12)N1CCC1 (single isomer, unassigned) [Example D42] and give its recorded Ki. 35.3

Consider the compound Cn1cnnc1[C@@H](c1cccc(-c2n[nH]c3c(C4CCCCN4)nc(C(F)(F)F)cc23)c1)C1CCC1 (single isomer, unassigned) [Example L2] and give its recorded Ki. 90.1

Consider the compound C[C@@H]1CCCN([C@@H](C)c2nc(C(F)(F)F)cc3c(-c4cccc(C5(Cc6nncn6C)COC5)c4)n[nH]c23)C1 (single isomer, unassigned) [Example D13] and give its recorded Ki. 15

Consider the compound CC1CN(Cc2nc(C(F)(F)F)cc3c(-c4cccc(C5(Cc6nncn6C)COC5)c4)n[nH]c23)CCC1(F)F (single isomer, unassigned) [Example C31] and give its recorded Ki. 21.7

Consider the compound C[C@@H](NC1CCCC1)c1nc(C(F)(F)F)cc2c(-c3cccc(C4(Cc5nncn5C)COC4)c3)n[nH]c12 (single isomer, unassigned) [Example C15] and give its recorded Ki. 8.9

Consider the compound C[C@H](NC[C@@H](C)O)c1nc(C(F)(F)F)cc2c(-c3cccc([C@H](c4nncn4C)C4CCC4)c3)n[nH]c12 (single isomer, unassigned) [Example D25] and give its recorded Ki. 6.4

Consider the compound Cn1cnnc1[C@@H](c1cccc(-c2n[nH]c3c(CN[C@H]4CC[C@@H](O)C4)nc(C(F)(F)F)cc23)c1)C1CCC1 [Example D87] and give its recorded Ki. 12.2

Consider the compound CC(N[C@H]1CCOC1)c1nc(C(F)(F)F)cc2c(-c3cccc(C4(Cc5nncn5C)COC4)c3)n[nH]c12 (single isomer, unassigned) [Example C82] and give its recorded Ki. 5.2

* * *

molecular target: CBL-B (Homo sapiens); construct: endogenous in cells; host or cells: Jurkat HiBit-IL2 reporter cells, C-CBL knocked out by CRISPR; experiment: Jurkat HiBit-IL2 assay (c-CBL KO), reporter cell line expressing CBL-B only; assay type: cell-based; conditions: C-CBL KO (expressing CBL-B only), geometric mean, Table 16b (further repetition), read-out: C-CBL KO EC50 (nM) GMean
Hi there, I'd appreciate the recorded EC50 for every entry that follows.
Kindly answer with a numeric value in nM, unit omitted.

Consider the compound C[C@H](O)CN[C@@H](C)c1nc(C(F)(F)F)cc2c(-c3cccc([C@H](c4nncn4C)C4CCC4)c3)n[nH]c12 (single isomer, unassigned) [Example D19] and give its recorded EC50. 24

Consider the compound CC(C)[C@H]1CNCCN1Cc1nc(C(F)(F)F)cc2c(-c3cccc([C@H](c4nncn4C)C4CCC4)c3)n[nH]c12 [Example D36] and give its recorded EC50. 52

Consider the compound CC(NC[C@H](C)O)c1nc(C(F)(F)F)cc2c(-c3cccc([C@H](c4nncn4C)C4CCCCC4)c3)n[nH]c12 (single isomer, unassigned) [Example C100] and give its recorded EC50. 110

Consider the compound C[C@@H](N[C@H]1C[C@@H](F)C1)c1nc(C(F)(F)F)cc2c(-c3cccc([C@H](c4nncn4C)C4CCC4)c3)n[nH]c12 (single isomer, unassigned) [Example C96] and give its recorded EC50. 76

Consider the compound CCNC(C)c1nc(C(F)(F)F)cc2c(-c3cccc([C@H](c4nncn4C)C4CCC4)c3)n[nH]c12 (single isomer, unassigned) [Example C89] and give its recorded EC50. 85

Consider the compound CC(C)[C@H]1CN(C)CCN1Cc1nc(C(F)(F)F)cc2c(-c3cccc([C@H](c4nncn4C)C4CCC4)c3)n[nH]c12 [Example D32] and give its recorded EC50. 12

Consider the compound CC(NCCO)c1nc(C(F)(F)F)cc2c(-c3cccc([C@H](c4nncn4C)C4CCCCC4)c3)n[nH]c12 (single isomer, unassigned) [Example C39] and give its recorded EC50. 108

Consider the compound C[C@H](N[C@@H]1CCC[C@@H]1O)c1nc(C(F)(F)F)cc2c(-c3cccc([C@H](c4nncn4C)C4CCC4)c3)n[nH]c12 (single isomer, unassigned) [Example D15] and give its recorded EC50. 4

Consider the compound CC(N[C@H]1CCC[C@@H]1O)c1nc(C(F)(F)F)cc2c(-c3cccc([C@H](c4nncn4C)C4CCCCC4)c3)n[nH]c12 (single isomer, unassigned) [Example C101] and give its recorded EC50. 58

Consider the compound C[C@H](N[C@@H]1CCOC1)c1nc(C(F)(F)F)cc2c(-c3cccc([C@H](c4nncn4C)C4CCC4)c3)n[nH]c12 (single isomer, unassigned) [Example D2] and give its recorded EC50. 83

Consider the compound C[C@H](CO)N[C@H](C)c1nc(C(F)(F)F)cc2c(-c3cccc([C@H](c4nncn4C)C4CCC4)c3)n[nH]c12 (single isomer, unassigned) [Example C44] and give its recorded EC50. 60

* * *

target: WT CBL-B (36-427) (Homo sapiens); construct: N-terminal biotinylated WT CBL-B (36-427) and C-CBL (46-435) were captured on a streptavidin (SA) coated sensor chip; experiment: Surface Plasmon Resonance (SPR) assay, binding affinity and kinetics, CBL-B; conditions: SPR at 10° C., biotinylated WT CBL-B (36-427) on streptavidin chip; geometric mean; read-out: CBL-B SPR Kd (nM) GMean
Hi there, I'd appreciate the recorded Kd for every entry that follows.
Kindly answer with a numeric value in nM, unit omitted.

Consider the compound Cn1cnnc1[C@@H](c1cccc(-c2n[nH]c3c(CNC4CCCC4)nc(C(F)(F)F)cc23)c1)C1CCC1 and give its recorded Kd. 2.8

Consider the compound C[C@H](c1nc(C(F)(F)F)cc2c(-c3cccc(C4(Cc5nncn5C)COC4)c3)n[nH]c12)N1CCO[C@@H](C)C1 (single isomer, unassigned) and give its recorded Kd. 6.6

Consider the compound Cn1cnnc1[C@@H](c1cccc(-c2n[nH]c3c(CNC4CCC4)nc(C(F)(F)F)cc23)c1)C1CCC1 and give its recorded Kd. 4.2

Consider the compound Cn1cnnc1CC1(c2cccc(-c3n[nH]c4c(CN5CC[C@H](F)C5)nc(C(F)(F)F)cc34)c2)COC1 and give its recorded Kd. 9

Consider the compound Cn1cnnc1[C@@H](c1cccc(-c2n[nH]c3c(CN4C[C@@H](F)[C@@H](F)C4)nc(C(F)(F)F)cc23)c1)C1CCC1 and give its recorded Kd. 3.7

Consider the compound Cn1cnnc1[C@@H](c1cccc(-c2n[nH]c3c(CN[C@@H]4CCOC4)nc(C(F)(F)F)cc23)c1)C1CCC1 and give its recorded Kd. 8.2

* * *

biological target: CBL-B (residues 36-427) (Homo sapiens, UniProt Q13191); construct: Purified CBL-B (residues 36-427) and C-CBL (residues 46-435) proteins from baculovirus-infected insect cells; made in house; host or cells: baculovirus-infected insect cells; test: Ligand Displacement Assay (LDA), HTRF competitive binding against BODIPY-labeled fluorescent tracer, CBL-B; conditions: geometric mean of the number of tests, read-out: CBL-B Ki (nM) GMean
Measure: Ki (nM)
Kindly answer with a numeric value in nM, unit omitted.

Consider the compound CC(NC(=O)CO)c1nc(C(F)(F)F)cc2c(-c3cccc([C@H](c4nncn4C)C4CCC4)c3)n[nH]c12 (single isomer, unassigned) [Example I1] and give its recorded Ki. 0.8

Consider the compound CC(NC(=O)[C@@H](C)O)c1nc(C(F)(F)F)cc2c(-c3cccc([C@H](c4nncn4C)C4CCC4)c3)n[nH]c12 (single isomer, unassigned) [Example I5] and give its recorded Ki. 2.7

Consider the compound CC[C@@H](c1cccc(-c2n[nH]c3c([C@H](C)NC[C@H](C)O)nc(C(F)(F)F)cc23)c1)c1nncn1C (single isomer, unassigned) and give its recorded Ki. 71.2

Consider the compound C[C@@H](N[C@@H]1CC[C@H]1O)c1nc(C(F)(F)F)cc2c(-c3cccc([C@H](c4nncn4C)C4CCC4)c3)n[nH]c12 (single isomer, unassigned) and give its recorded Ki. 2.2

Consider the compound CC(c1nc(C(F)(F)F)cc2c(-c3cccc(C4(Cc5nncn5C)COC4)c3)n[nH]c12)N1C[C@@H](F)[C@H](F)C1 (single isomer, unassigned) and give its recorded Ki. 6.5
